- target: human GLP-1 receptor (human, UniProt P43220 24-463)
- assayProcedure: cell-based or functional assay

binder | unitsOfMeasure | EC50 hGLP-1R (cAMP)
HXQGTFTSDLSKQKESRAAQLFIEWLKAXGPSSGAPPPS (Aib at 2; K(γE-x76) at 14; dAla at 29; C-terminal NH2) [SEQ ID NO: 204] | pM | 34.1
HXQGTFTSDLSKQKESKAAQLFIEWLKAGGPSSGAPPPS (dSer at 2; K(γE-x53) at 14; C-terminal NH2) [SEQ ID NO: 29] | pM | 5.9
HXQGTFTSDLSKQKEKRRAQDFIEWLKNGGPSSGAPPPS (dSer at 2; K(γE-x53) at 14; C-terminal NH2) [SEQ ID NO: 88] | pM | 2.4
